- Tested on: male C57BL mice
- assay_remarks: In vivo stimulation of intestinal growth, 200 nmol/kg (Example 11)
- run_conditions: 200 nmol/kg s.c. once daily for 3 days; relative to 1559
- Protocol: The ability of further compounds to selectively stimulate small intestinal mass, relative to colon mass was determined in male C57BL mice. A similar protocol was used to that described above in Example 10 except that 200 nmol/kg of each compound was administered per day. Thus, individual groups (n=6-10) of mice were given 200 nmol/kg of each compound, s.c, once daily for three consecutive days. […]
recorded_metric: Sensitivity index Si/Colon
Please give only the number in your answer, with no unit.

# input Which Sensitivity index Si/Colon value belongs to H-HGEGSFSDELATILESLAASDFISWLISTKITDKKKKKK-NH2 [ZP2386] ?
# output 1.02

# input Then what about the substance H-HGEGSFSDELSTILEALAAADFIAWLIATKITDKKKKKK-NH2 [ZP2404] ?
# output 0.99

# input Then what about the substance H-HGEGSFSDELLTILELLAASDFISWLISTKITD-NH2 [ZP2400] ?
# output 1.00

# input Then what about the substance H-HGEGSFSDELATILESLAAADFIAWLIATKITD-NH2 [ZP2414] ?
# output 0.99
